Please provide measured sensor-assay potency score (higher = more potent) for the entries that follow.
Target: GGH; further: reference of the scale not given here
Assay: pooled miR-30 sensor sort-seq; sequence = guide strand
Conditions: shRNA
Hey, just send me the number, nothing else.

GET /values?readout=sensor-assay potency score (higher = more potent)&item= TTGACCTCCAGTGAAGTTCAGC
-0.539

GET /values?readout=sensor-assay potency score (higher = more potent)&item= TTTAACTTTTCATTCATTGTAA
0.207

GET /values?readout=sensor-assay potency score (higher = more potent)&item= AAATTCTGGAACATTCTGCTGT
0.666

GET /values?readout=sensor-assay potency score (higher = more potent)&item= TTCTCTGTAAGATCCAGCCTTA
-0.166

GET /values?readout=sensor-assay potency score (higher = more potent)&item= TATTTCATAGTCTTTCTCTGTA
0.438

GET /values?readout=sensor-assay potency score (higher = more potent)&item= TTAATAAGCACTCTCCACTAAT
-1.04

GET /values?readout=sensor-assay potency score (higher = more potent)&item= TTTCTCTGTAAGATCCAGCCTT
-0.286
